Tested on: homoserine transsuccinylase
Assay: Homoserine transsuccinylase activity test (Lee et al.), 5,5'-dithiobis(2-nitrobenzoic acid), absorption at 412 nm, with and without SAM
Type: biochemical, E. coli
Conditions: 1 mM SAM; activity in the absence of SAM corresponds to 100%
Method: In order to determine the sensitivity of the activity of the different homoserine transsuccinylases to SAM, it is possible, for example, to carry out an activity test as described in Lee L. W. et al., J. Biol. Chem. 241, 5479-5480 (1966). […] The absorption is determined photometrically at 412 nm. […] The influence of SAM on the activities of the different homoserine transsuccinylases was determined by quantifying the activity in the presence of different concentrations of SAM (Cl salt, Sigma). […]
experimental.endpoint: Activity (%) in the presence of 1 mM SAM
Number in %, nothing else.

Here is how some molecules turned out for Activity (%) in the presence of 1 mM SAM.
[[record]]
molecule = "pSLmetAA: MetA variant with Ala instead of Asp at position 101 (protein, UniProt P07623 2-309, looked up, variant D101A) Homoserine …: PIRVPDELPAVNFLREENVFVMTTSRASGQEIRPLKVLILNLMPKKIETENQFLRLLSNSPLQVDIQLLRIDSRESRNTPAEHLNNFYCNFEDIQDQNFAGLIVTGAPLGLVEFNDVAYWPQIKQVLEWSKDHVTSTLFVCWAVQAALNILYGIPKQTRTEKLSGVYEHHILHPHALLTRGFDDSFLAPHSRYADFPAALIRDYTDLEILAETEEGDAYLFASKDKRIAFVTGHPEYDAQTLAQEFFRDVEAGLDPDVPYNYFPHNDPQNTPRASWRSHGNLLFTNWLNYYVYQITPYDLRHMNPTLD"
recorded_measurement = 90

[[record]]
molecule = "pSLmetAC: MetA variant with Cys instead of Asp at position 101 (protein, UniProt P07623 2-309, looked up, variant D101C) Homoserine …: PIRVPDELPAVNFLREENVFVMTTSRASGQEIRPLKVLILNLMPKKIETENQFLRLLSNSPLQVDIQLLRIDSRESRNTPAEHLNNFYCNFEDIQDQNFCGLIVTGAPLGLVEFNDVAYWPQIKQVLEWSKDHVTSTLFVCWAVQAALNILYGIPKQTRTEKLSGVYEHHILHPHALLTRGFDDSFLAPHSRYADFPAALIRDYTDLEILAETEEGDAYLFASKDKRIAFVTGHPEYDAQTLAQEFFRDVEAGLDPDVPYNYFPHNDPQNTPRASWRSHGNLLFTNWLNYYVYQITPYDLRHMNPTLD"
recorded_measurement = 91


Moving on to the next molecule.
The reported value for pSLmetAH: MetA variant with His instead of Asp at position 101 (protein, UniProt P07623 2-309, looked up, variant D101H) Homoserine …: PIRVPDELPAVNFLREENVFVMTTSRASGQEIRPLKVLILNLMPKKIETENQFLRLLSNSPLQVDIQLLRIDSRESRNTPAEHLNNFYCNFEDIQDQNFHGLIVTGAPLGLVEFNDVAYWPQIKQVLEWSKDHVTSTLFVCWAVQAALNILYGIPKQTRTEKLSGVYEHHILHPHALLTRGFDDSFLAPHSRYADFPAALIRDYTDLEILAETEEGDAYLFASKDKRIAFVTGHPEYDAQTLAQEFFRDVEAGLDPDVPYNYFPHNDPQNTPRASWRSHGNLLFTNWLNYYVYQITPYDLRHMNPTLD in terms of Activity (%) in the presence of 1 mM SAM is 93
